Every entry's value here was drawn from patent US6472530B1.

Molecular target: calcium channel (Oryctolagus cuniculus, UniProt P15381)
Construct: from tissue; host or cells: rabbit heart membrane preparation
Sequence (P15381 whole entry, other chains not shown): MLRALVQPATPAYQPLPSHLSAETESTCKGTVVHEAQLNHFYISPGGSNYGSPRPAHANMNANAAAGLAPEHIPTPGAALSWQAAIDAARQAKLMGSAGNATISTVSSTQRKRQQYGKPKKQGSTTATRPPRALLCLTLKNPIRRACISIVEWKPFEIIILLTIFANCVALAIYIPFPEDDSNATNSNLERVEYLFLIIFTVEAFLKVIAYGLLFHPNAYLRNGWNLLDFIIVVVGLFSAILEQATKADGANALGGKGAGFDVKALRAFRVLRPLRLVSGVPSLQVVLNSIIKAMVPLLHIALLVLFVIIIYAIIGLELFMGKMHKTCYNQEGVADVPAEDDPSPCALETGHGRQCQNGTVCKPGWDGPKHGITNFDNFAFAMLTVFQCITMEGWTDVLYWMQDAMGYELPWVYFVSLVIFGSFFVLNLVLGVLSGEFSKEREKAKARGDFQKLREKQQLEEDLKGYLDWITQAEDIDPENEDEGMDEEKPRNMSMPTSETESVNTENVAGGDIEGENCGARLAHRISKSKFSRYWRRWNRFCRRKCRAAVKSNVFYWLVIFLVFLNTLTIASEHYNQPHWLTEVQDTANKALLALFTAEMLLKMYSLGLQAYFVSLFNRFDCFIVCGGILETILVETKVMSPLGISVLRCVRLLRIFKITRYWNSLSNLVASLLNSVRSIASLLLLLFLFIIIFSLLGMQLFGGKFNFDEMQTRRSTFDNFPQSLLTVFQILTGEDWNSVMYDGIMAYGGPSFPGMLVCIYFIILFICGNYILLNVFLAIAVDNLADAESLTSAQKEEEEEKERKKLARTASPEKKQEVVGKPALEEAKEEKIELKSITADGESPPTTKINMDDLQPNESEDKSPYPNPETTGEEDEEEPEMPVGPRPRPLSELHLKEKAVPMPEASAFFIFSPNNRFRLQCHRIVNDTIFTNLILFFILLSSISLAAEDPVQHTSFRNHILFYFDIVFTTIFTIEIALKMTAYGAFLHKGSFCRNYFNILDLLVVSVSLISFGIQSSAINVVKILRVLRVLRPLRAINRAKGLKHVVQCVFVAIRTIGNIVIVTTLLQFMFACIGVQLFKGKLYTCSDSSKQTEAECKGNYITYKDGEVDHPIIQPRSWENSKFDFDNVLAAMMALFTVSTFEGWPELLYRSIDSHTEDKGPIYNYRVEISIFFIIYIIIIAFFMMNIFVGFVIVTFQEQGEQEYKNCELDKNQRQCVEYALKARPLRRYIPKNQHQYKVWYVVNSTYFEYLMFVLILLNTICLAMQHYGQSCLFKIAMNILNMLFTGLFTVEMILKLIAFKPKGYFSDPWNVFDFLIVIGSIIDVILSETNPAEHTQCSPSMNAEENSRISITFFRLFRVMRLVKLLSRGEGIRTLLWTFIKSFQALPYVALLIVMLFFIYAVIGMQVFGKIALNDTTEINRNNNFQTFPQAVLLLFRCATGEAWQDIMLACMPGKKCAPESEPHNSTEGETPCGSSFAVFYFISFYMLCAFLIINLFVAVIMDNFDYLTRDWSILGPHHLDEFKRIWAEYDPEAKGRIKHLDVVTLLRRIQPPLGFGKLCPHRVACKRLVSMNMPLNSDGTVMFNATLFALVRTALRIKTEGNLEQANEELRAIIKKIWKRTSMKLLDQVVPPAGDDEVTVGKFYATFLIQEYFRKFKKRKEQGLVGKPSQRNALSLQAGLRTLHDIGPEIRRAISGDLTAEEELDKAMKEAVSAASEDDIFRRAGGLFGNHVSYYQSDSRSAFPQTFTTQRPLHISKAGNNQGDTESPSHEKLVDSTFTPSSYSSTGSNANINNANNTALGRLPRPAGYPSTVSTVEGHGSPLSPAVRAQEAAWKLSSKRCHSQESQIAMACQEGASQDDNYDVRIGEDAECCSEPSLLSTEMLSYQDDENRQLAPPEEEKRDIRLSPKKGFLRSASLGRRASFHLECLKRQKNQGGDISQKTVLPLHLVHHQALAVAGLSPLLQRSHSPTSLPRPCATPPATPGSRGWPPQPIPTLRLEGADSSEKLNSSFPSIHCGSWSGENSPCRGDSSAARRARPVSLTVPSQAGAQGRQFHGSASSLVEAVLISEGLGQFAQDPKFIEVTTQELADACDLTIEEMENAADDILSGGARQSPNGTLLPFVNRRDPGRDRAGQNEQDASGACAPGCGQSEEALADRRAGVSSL
Sequence (P13806 27-960 partner limits assumed, other chains not shown): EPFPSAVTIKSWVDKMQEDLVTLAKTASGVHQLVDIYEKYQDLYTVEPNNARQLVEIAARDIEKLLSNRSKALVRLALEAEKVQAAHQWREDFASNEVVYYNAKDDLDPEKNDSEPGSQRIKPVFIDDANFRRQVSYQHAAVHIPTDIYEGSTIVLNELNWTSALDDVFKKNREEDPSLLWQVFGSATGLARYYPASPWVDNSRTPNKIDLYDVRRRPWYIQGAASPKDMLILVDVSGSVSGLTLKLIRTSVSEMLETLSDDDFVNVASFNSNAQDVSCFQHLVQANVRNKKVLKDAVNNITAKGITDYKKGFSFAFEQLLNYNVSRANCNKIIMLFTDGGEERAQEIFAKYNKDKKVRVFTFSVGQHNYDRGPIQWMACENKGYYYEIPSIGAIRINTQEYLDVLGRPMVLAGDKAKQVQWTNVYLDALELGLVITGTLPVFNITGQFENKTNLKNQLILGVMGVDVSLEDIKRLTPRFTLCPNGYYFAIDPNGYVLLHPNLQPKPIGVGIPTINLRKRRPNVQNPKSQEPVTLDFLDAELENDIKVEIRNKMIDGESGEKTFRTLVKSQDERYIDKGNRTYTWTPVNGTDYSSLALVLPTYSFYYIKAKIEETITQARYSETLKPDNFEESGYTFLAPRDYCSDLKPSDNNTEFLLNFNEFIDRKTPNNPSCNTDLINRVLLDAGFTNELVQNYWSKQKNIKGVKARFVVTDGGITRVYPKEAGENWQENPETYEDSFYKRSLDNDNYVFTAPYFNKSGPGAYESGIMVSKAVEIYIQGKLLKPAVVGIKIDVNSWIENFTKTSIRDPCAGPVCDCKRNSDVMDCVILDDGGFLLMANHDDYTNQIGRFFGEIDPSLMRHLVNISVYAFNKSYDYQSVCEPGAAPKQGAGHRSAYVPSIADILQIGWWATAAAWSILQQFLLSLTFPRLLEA
Sequence (P13806 961-1106 partner limits assumed, other chains not shown): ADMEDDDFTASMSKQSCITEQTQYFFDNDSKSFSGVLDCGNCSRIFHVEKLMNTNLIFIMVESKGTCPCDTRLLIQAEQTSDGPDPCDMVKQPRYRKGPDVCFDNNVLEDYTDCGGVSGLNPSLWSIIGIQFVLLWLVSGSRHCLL
Assay: Assay for Inhibition of Nitrendipine Binding (3H-nitrendipine, heart membranes)
Set-up: species or system rabbit
Description: Assay for Inhibition of Nitrendipine Binding Female, New Zealand white rabbits (1-2 kg) are sacrificed by cervical dislocation, and the heart is immediately removed, cleaned and chopped into small pieces. The tissue is homogenized in 5×times volume of 0.05M Hepes buffer, pH 7.4. The homogenate is centrifuged at 4000 g for 10 minutes, and the supernatant is re-centrifuged at 42,000×g for 90 minutes. […] After rinsing, the filters are dried and counted in a liquid scintillation counter. […]
recorded metric: IC50 (nM)
Please respond with the number in nM and leave the unit unwritten.

Identify IC50 associated with the compound CC1=C(C(=O)OCCOC(=O)Cc2ccccc2)C(c2c(F)cccc2Cl)C2=C(CS(=O)(=O)c3ccccc3S2(=O)=O)N1 (stereo not shown) [Compound 30]
110

----------
molecular target: calcium channel (Oryctolagus cuniculus, UniProt P15381); construct: from tissue; host or cells: rabbit heart membrane preparation; experiment: Assay for Inhibition of Nitrendipine Binding (3H-nitrendipine, heart membranes); parameters: species or system rabbit; details: Table 1, compounds of Formula I; 3H-nitrendipine displacement, rabbit heart membranes; read-out: Nitrendipine Binding Assay IC50
recorded metric: IC50 (µM)
Please respond with the number in µM and leave the unit unwritten.

Worked set:
In [3]: df
Out[3]:
                                   compound  recorded_metric  measure_unit  observed_value
0  CC1=C(C(=O)OCCN(C)Cc2ccccc2)C(c2c(F)c(F)c(F)c(F)c2F)C2=C(CS(=O)(=O)c3ccccc3S2(=O)=O)N1 (stereo not shown)             IC50            µM           0.021
1  CC1=C(C(=O)OCCN(C)Cc2ccccc2)C(c2ccccc2Cl)C2=C(C[S+]([O-])c3ccccc3S2(=O)=O)N1 (stereo not shown)             IC50            µM           0.023
2  CC1=C(C(=O)OCCN(C)Cc2ccccc2)C(c2cccc(Cl)c2)C2=C(CS(=O)(=O)c3ccccc3S2(=O)=O)N1 (stereo not shown)             IC50            µM           0.022
3  COC(=O)C1=C(C)NC2=C(C1c1c(F)c(F)c(F)c(F)c1F)S(=O)(=O)c1ccccc1S(=O)(=O)C2 (stereo not shown)             IC50            µM           0.012
4  COC(=O)C1=C(C)NC2=C(C1c1ccccc1Cl)S(=O)(=O)c1ccccc1[S+]([O-])C2 (stereo not shown)             IC50            µM           0.014

Identify IC50 associated with the compound COC(=O)C1=C(C)NC2=C(C1c1cccc(Cl)c1)S(=O)(=O)c1ccccc1[S+]([O-])C2 (stereo not shown)
0.02

Identify IC50 associated with the compound CC1=C(C(=O)OCCN(C)Cc2ccccc2)C(c2ccccc2Cl)C2=C(CS(=O)(=O)c3ccccc3S2(=O)=O)N1 (stereo not shown)
0.018

----------
biological target: calcium channel (Oryctolagus cuniculus, UniProt P15381); construct: from tissue; host or cells: rabbit heart membrane preparation; assay: Assay for Inhibition of Nitrendipine Binding (3H-nitrendipine, heart membranes); parameters: species or system rabbit; conditions: Table 2, compounds of Formula II; 3H-nitrendipine displacement, rabbit heart membranes; read-out: Nitrendipine Binding IC50
recorded metric: pIC50
Give only the number. pIC50 is defined as minus log10 of concentration in molar units.

compound	pIC50
CC1=C(C(=O)OCCNC(=O)OC(C)(C)C)C(c2c(F)cccc2Cl)C2=C(CS(=O)(=O)c3ccccc3S2(=O)=O)N1 (centres unmarked)	6.38
CC1=C(C(=O)OCCNC(=O)c2ccccc2)C(c2c(F)cccc2Cl)C2=C(CS(=O)(=O)c3ccccc3S2(=O)=O)N1 (centres unmarked)	6.07
CC1=C(C(=O)OCCOC(=O)C(C)(C)C)C(c2c(F)cccc2Cl)C2=C(CS(=O)(=O)c3ccccc3S2(=O)=O)N1 (centres unmarked)	6.43
CC(=O)OCCOC(=O)C1=C(C)NC2=C(C1c1c(F)cccc1Cl)S(=O)(=O)c1ccccc1S(=O)(=O)C2 (centres unmarked)	6.74

Attention now shifts to the item below.
Identify pIC50 associated with the compound COc1ccc2cc([C@H](C)C(=O)OCCOC(=O)C3=C(C)NC4=C(C3c3c(F)cccc3Cl)S(=O)(=O)c3ccccc3S(=O)(=O)C4)ccc2c1 (some centres unmarked)
6.68
